test system: NRG-mice bearing LNCaP tumors; assay: Biodistribution (and PET/SPECT imaging) in NRG-mice bearing LNCaP tumors; assay type: in vivo; details: 3 h p.i., Avg
*1 amine or outer side, *2 acyl side, *3 side chain or, on linkers, in order; H or OH if unused. Where a SMILES comes first, the peptide text is derived from it. [ ]: non-standard residue; d: D form. The star is where a group is joined. ξ: configuration not given here. ξLys(Nα-CO-ξAad) = O=C(O)CCCC(NC(=O)NC(CCCCN*)C(=O)O)C(=O)O; Butanoyl(4-(4-NO2Ph)) = O=C(CCCc1ccc([N+](=O)[O-])cc1)*; DOTA = O=C(O)CN1CCN(CC(=O)O)CCN(CC(=O)*)CCN(CC(=O)O)CC1; Butanoyl(4-(4-MeO-phenyl)) = COc1ccc(CCCC(=O)*)cc1; ξAla(9-anthryl) = NC(Cc1c2ccccc2cc2ccccc12)C(=O)O; X1 = O=C(C1CCC(CN[*:1])CC1)[*:2]; ξK = NCCCCC(N)C(=O)O
Attribute: Biodistribution: Lungs
Write the number in % ID/g without appending the unit.

Compound	Unit of measurement	Test value
COc1ccc(CCCC(=O)NCC(=O)NC(CCCCNC(=O)CN2CCN(CC(=O)[O-])CCN(CC(=O)[O-])CCN(CC(=O)[O-])CC2)CC(=O)NCC2CCC(C(=O)NC(Cc3c4ccccc4cc4ccccc34)C(=O)NCCCCC(NC(=O)NC(CC(F)C(=O)O)C(=O)O)C(=O)O)CC2)cc1.[177Lu+3] (stereo not drawn) [^177Lu-CCZ02019]	% ID/g	5.22

Give recorded Biodistribution: Lungs. O=C([O-])CN1CCN(CC(=O)[O-])CCN(CC(=O)NCCCCC(NC(=O)CNC(=O)CCCc2ccc([N+](=O)[O-])cc2)C(=O)NCC(=O)NCC2CCC(C(=O)NC(Cc3c4ccccc4cc4ccccc34)C(=O)NCCCCC(NC(=O)NC(CCCC(=O)O)C(=O)O)C(=O)O)CC2)CCN(CC(=O)[O-])CC1.[225Ac+3] (stereo not drawn) [^225Ac-CCZ02017] ({Butanoyl(4-(4-NO2Ph))}-G[ξK](DOTA)G[X1][ξAla(9-anthryl)]-{ξLys(Nα-CO-ξAad)})
4.93

Give recorded Biodistribution: Lungs. COc1ccc(CCCC(=O)NCC(=O)NC(CCCCNC(=O)CN2CCN(CC(=O)[O-])CCN(CC(=O)[O-])CCN(CC(=O)[O-])CC2)C(=O)NCC(=O)NCC2CCC(C(=O)NC(Cc3c4ccccc4cc4ccccc34)C(=O)NCCCCC(NC(=O)NC(CCCC(=O)O)C(=O)O)C(=O)O)CC2)cc1.[68Ga+3] (stereo not drawn) [^68Ga-CCZ02009] ({Butanoyl(4-(4-MeO-phenyl))}-G[ξK](DOTA)G[X1][ξAla(9-anthryl)]-{ξLys(Nα-CO-ξAad)})
7.15

====

Attribute: Biodistribution: Stomach
system: NRG-mice bearing LNCaP tumors; test: Biodistribution (and PET/SPECT imaging) in NRG-mice bearing LNCaP tumors; assay type: in vivo; conditions: 3 h p.i., Avg
*1 amine or outer side, *2 acyl side, *3 side chain or, on linkers, in order; H or OH if unused. Where a SMILES comes first, the peptide text is derived from it. [ ]: non-standard residue; d: D form. The star is where a group is joined. ξ: configuration not given here. ξLys(Nα-CO-ξAad) = O=C(O)CCCC(NC(=O)NC(CCCCN*)C(=O)O)C(=O)O; Butanoyl(4-(4-NO2Ph)) = O=C(CCCc1ccc([N+](=O)[O-])cc1)*; DOTA = O=C(O)CN1CCN(CC(=O)O)CCN(CC(=O)*)CCN(CC(=O)O)CC1; Butanoyl(4-(4-MeO-phenyl)) = COc1ccc(CCCC(=O)*)cc1; ξAla(9-anthryl) = NC(Cc1c2ccccc2cc2ccccc12)C(=O)O; X2 = O=C(NC(CCCCN*)C(=O)O)NC(CC(F)C(=O)O)C(=O)O; X1 = O=C(C1CCC(CN[*:1])CC1)[*:2]; ξK = NCCCCC(N)C(=O)O
Write the number in % ID/g without appending the unit.

Compound	Observed property	Test value
O=C([O-])CN1CCN(CC(=O)[O-])CCN(CC(=O)NCCCCC(NC(=O)CNC(=O)CCCc2ccc([N+](=O)[O-])cc2)C(=O)NCC(=O)NCC2CCC(C(=O)NC(Cc3c4ccccc4cc4ccccc34)C(=O)NCCCCC(NC(=O)NC(CC(F)C(=O)O)C(=O)O)C(=O)O)CC2)CCN(CC(=O)[O-])CC1.[68Ga+3] (stereo not drawn) [^68Ga-CCZ02025] ({Butanoyl(4-(4-NO2Ph))}-G[ξK](DOTA)G[X1][ξAla(9-anthryl)]-X2)	Biodistribution: Stomach	0.57
COc1ccc(CCCC(=O)NCC(=O)NC(CCCCNC(=O)CN2CCN(CC(=O)[O-])CCN(CC(=O)[O-])CCN(CC(=O)[O-])CC2)C(=O)NCC(=O)NCC2CCC(C(=O)NC(Cc3c4ccccc4cc4ccccc34)C(=O)NCCCCC(NC(=O)NC(CCCC(=O)O)C(=O)O)C(=O)O)CC2)cc1.[68Ga+3] (stereo not drawn) [^68Ga-CCZ02009] ({Butanoyl(4-(4-MeO-phenyl))}-G[ξK](DOTA)G[X1][ξAla(9-anthryl)]-{ξLys(Nα-CO-ξAad)})	Biodistribution: Stomach	0.73

Then this compound:
Give recorded Biodistribution: Stomach. COc1ccc(CCCC(=O)NCC(=O)NC(CCCCNC(=O)CN2CCN(CC(=O)[O-])CCN(CC(=O)[O-])CCN(CC(=O)[O-])CC2)CC(=O)NCC2CCC(C(=O)NC(Cc3c4ccccc4cc4ccccc34)C(=O)NCCCCC(NC(=O)NC(CC(F)C(=O)O)C(=O)O)C(=O)O)CC2)cc1.[177Lu+3] (stereo not drawn) [^177Lu-CCZ02019]
0.58
